- ASSAYED_SYSTEM: SIK1 kinase (aa1-303, Thermo Fisher) (Homo sapiens, UniProt P57059)
- Construct: SIK1 kinase (aa1-303, Thermo Fisher); purchased Thermo Fisher
- Sequence (P57059 1-303): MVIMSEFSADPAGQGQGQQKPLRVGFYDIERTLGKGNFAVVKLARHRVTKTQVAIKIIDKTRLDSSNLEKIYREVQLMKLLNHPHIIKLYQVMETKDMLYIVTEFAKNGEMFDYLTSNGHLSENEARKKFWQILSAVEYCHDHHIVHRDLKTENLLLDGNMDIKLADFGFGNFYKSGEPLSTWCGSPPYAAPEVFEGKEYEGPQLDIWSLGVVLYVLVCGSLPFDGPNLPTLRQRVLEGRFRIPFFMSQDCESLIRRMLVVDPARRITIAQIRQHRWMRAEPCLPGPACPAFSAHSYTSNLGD
- METHOD_NOTES: Biochemical activities determination for SIK1 protein (TR-FRET)
- CONDITION: 110 uM ATP, 0.5 μM STK1 substrate
Please respond with reported IC50 for every item in the list.
Numbers only, in nM.

A selection of reference data follows.
Documented IC50 of "COc1cc(-c2coc3cc(OCCN4CCCC[C@@H]4C)ccc23)cc(OC(F)F)c1C(=O)N[C@@H]1C[C@@H]1F" : 2500

For this compound ( "CNc1cc(-c2coc3cc(OCCN4CCCC4)ccc23)cc(OC(F)F)c1C(=O)NC1CC1" ), measured IC50 is 3960

Parameters: items (list). Returns: IC50 for each item.
1. COc1cc(-c2coc3cc(-c4cnn(C)c4)ccc23)cc2c1C(=O)N(Cc1ccncc1)CC2
2. CN1CC(n2cc(-c3ccc4c(-c5cc6c(c(OC(F)F)c5)C(=O)N(CC#N)CC6)coc4c3)cn2)C1

1: 2610; 2: 405
